The measured values listed here are drawn from PubChem BioAssay AID2060897.

Test system: 966289-007-R4-J1-PDC complex spheroid viability
EXPERIMENT DESCRIPTION: Anticancer human tumor 966289-007-R4-J1-PDC patient-derived pancreatic adenocarcinoma cell line growth inhibition [RAS]
RECORDED CONDITIONS: second compound 0.000949 µM; first compound 3.16 µM; stronger effect = lower value
Consider the following molecules; for each one, report its viability, T/C.
Provide the reading as a plain figure in %.

Write down viability, T/C measured for item CC1(O)CCCC1n1c(=O)c(C(F)F)cc2cnc(NC3CCN(S(C)(=O)=O)CC3)nc21 (configuration not stated) + CCn1c(-c2cc(N3CCN(C)CC3)cnc2C(C)OC)c2c3cc(ccc31)-c1csc(n1)CC(NC(=O)C1CC1C)C(=O)N1CCCC(N1)C(=O)OCC(C)(C)C2
26.8

Write down viability, T/C measured for item CC(Nc1ccc2c(c1)OCCn1cc(N3C(=O)OCC3C(F)F)nc1-2)C(N)=O (configuration not stated) + CCn1c(-c2cc(N3CCN(C)CC3)cnc2C(C)OC)c2c3cc(ccc31)-c1csc(n1)CC(NC(=O)C1CC1C)C(=O)N1CCCC(N1)C(=O)OCC(C)(C)C2
110

====

Tested on: 966289-007-R4-J1-PDC complex spheroid viability
EXPERIMENT DESCRIPTION: Anticancer human tumor 966289-007-R4-J1-PDC cell line growth inhibition [RAS];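 note: spheroids exposed to agents for one week before readout; percent viability relative to DMSO vehicle control wells as 100%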
RECORDED CONDITIONS: second compound 0.00949 µM; first compound 1 µM; stronger effect = lower value
RESULT TYPE: viability, T/C (%)
Provide the reading as a plain figure in %.

System 966289-007-R4-J1-PDC complex spheroid viability. Read-out viability, T/C. Item O=C(c1ccc(F)c(F)c1Nc1ccc(I)cc1F)N1CC(O)([C@@H]2CCCCN2)C1 + CCn1c(-c2cccnc2C(C)OC)c2c3cc(ccc31)N1CCOC(CC(NC(=O)C(C(C)C)N(C)C(=O)C3(F)CCN(C(=O)C#CC(C)(C)N(C)C)CC3)C(=O)N3CCCC(N3)C(=O)OCC(C)(C)C2)C1 . Report value.
48.1

System 966289-007-R4-J1-PDC complex spheroid viability. Read-out viability, T/C. Item C=CC(=O)N1CCN(c2nc(OCC3CCCN3C)nc3c(F)c(-c4nc(N)cc(C)c4C(F)(F)F)c(Cl)cc23)C(C)C1 (centres undefined) + CCn1c(-c2cc(N3CCN(C)CC3)cnc2C(C)OC)c2c3cc(ccc31)-c1csc(n1)CC(NC(=O)C1CC1C)C(=O)N1CCCC(N1)C(=O)OCC(C)(C)C2 . Report value.
94.4

System 966289-007-R4-J1-PDC complex spheroid viability. Read-out viability, T/C. Item CCC(CC)c1cc(NC2CCC(N)C2)n2nccc2n1 (centres undefined) + CCn1c(-c2cccnc2C(C)OC)c2c3cc(ccc31)N1CCOC(CC(NC(=O)C(C(C)C)N(C)C(=O)C3(F)CCN(C(=O)C#CC(C)(C)N(C)C)CC3)C(=O)N3CCCC(N3)C(=O)OCC(C)(C)C2)C1 . Report value.
75.1

System 966289-007-R4-J1-PDC complex spheroid viability. Read-out viability, T/C. Item Nc1ccn(C2OC(CO)C(O)C2(F)F)c(=O)n1 (centres undefined) + CCn1c(-c2cc(N3CCN(C)CC3)cnc2C(C)OC)c2c3cc(ccc31)-c1csc(n1)CC(NC(=O)C1CC1C)C(=O)N1CCCC(N1)C(=O)OCC(C)(C)C2 . Report value.
1.04
